Ref: PubChem BioAssay (NCI)

- Test system: HCC-2998 colon
- protocol-text: NCI tumour cell line growth inhibition, 48 h

{"columns": ["structure", "TGI"],
 "data": [
  ["Cc1c(C(=O)/C=C/c2ccc(O)cc2)nnn1-c1ccnc2c(C(F)(F)F)cccc12", "> 100 µM"],
  ["COc1ccc(CSCc2cc(OC)c(OC)c(OC)c2)cc1", "> 31.6 µM"],
  ["N#Cc1nc(-c2cccc(Br)c2)cc(-c2ccc(Nc3nc(N4CCCCC4)nc(N4CCCCC4)n3)cc2)c1N", "6.62 µM"],
  ["Cc1ccc(-c2c(C#N)c(-c3ccc(N(C)C)cc3)c(C#N)c(=O)n2NS(=O)(=O)c2ccccc2)cc1", "> 100 µM"],
  ["CN(C)c1cccc2[nH]c(-c3[nH]ncc3Nc3ccnc(N)n3)nc12", "0.488 µM"],
  ["CSc1nc(=S)[nH]c2n[nH]c(C)c12", "> 100 µM"]
]}
